# Test system: SN12C
# assay-method-text: NCI tumour cell line growth inhibition, 48 h
The source made the active and inactive calls. Rule as the data show it: active = GI50 up to about 1.1 µM and inactive = higher.
Allowed answers: class 1 = active, class 0 = inactive

Use these answered entries as a reference point.
[N-]=[N+]=NC(c1cn(C2CC(O)C(CO)O2)c(=O)[nH]c1=O)C(Br)I (configuration not stated)	class 0
c1ccc2c(c1)ncn2CCn1ccnc1	class 0
Nc1ncnc2c1ncn2CC(O)CO (configuration not stated)	class 0

Ask | Call for entry "Cc1ccc(-n2cc(-c3ccc(Cl)cc3)c3c(=N)n(N)cnc32)cc1" :
Reply | class 0

Ask | Call for entry CCCCCCCCCCCC(=O)OCC(O)CO (configuration not stated) [GLYCEROL MONOLAURATE] :
Reply | class 0

Ask | Call for entry "CN(C)/C(=N\C#N)N(Cc1ccccc1)Cc1ccccc1" :
Reply | class 0

Ask | Call for entry "O=C1C(=O)N(c2cc(Cl)ccc2Cl)C(=O)C(=O)C1c1nc2ccccc2o1" :
Reply | class 0

Ask | Call for entry "CS(=O)(=O)NNS(=O)(=O)c1cccc([N+](=O)[O-])c1" :
Reply | class 0

Ask | Call for entry Clc1ccc(C2ON=C(c3ccccc3)N2C23CC4CC(CC(C4)C2)C3)cc1 (configuration not stated) :
Reply | class 0
